Values were extracted from ChEMBL document CHEMBL1146219.

Test: Biodistribution in melanoma of B16F0 tumor bearing C57BL/6J mouse at 0.37-0.74 MBq, iv after 6 hrs
Format: ADME, organism-based, B16-F0
Settings: in vivo
experimentalReadout: Drug uptake (% ID/g)

[[record]]
samplesmiles = "CCCCN(C)CCCCNC(=O)c1cc([123I])c(NC(C)=O)cc1OC"
observedmeasurement = 8.4


(1) CCN(CC)CCNC(=O)c1cc([123I])c(NS(C)(=O)=O)cc1OC
(2) CCN(CC)CCNC(=O)c1ccccc1[123I]
Between 1 and 2 , whose measured Drug uptake reads higher? # answer = label of selected item
2
(2: 8.8 % ID/g, 1: 3.6 % ID/g)
